Taken from PubChem BioAssay.

# measurement protocol: S. cerevisiae RM11-1a growth modifiers, primary screen, strain RM11-1a, OD600, basal, 24 h (AID 1177);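 also: cultures grown under basal conditions with no added stressor; test concentration not given here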
# measurement setup: OD600, 24 h, higher = more signal, called active from +8 up or from −8 down
Active and inactive are the calls of the source.
readout label: z-score

In the examples that follow, each entry is paired with its recorded z-score.
smiles input	assay result
O=C(N1CCOCC1)[C@]1(CCS(=O)(=O)c2ccccc2)N=C(c2ccc(OCCCO)cc2)O[C@@H]1c1ccccc1	2.17 (inactive)
COCCOC(=O)N1C(=O)[C@@]2(c3cc(C#CC4=CCCCC4)ccc31)[C@H](c1ccc(O)cc1)N1[C@H](c3ccccc3)[C@H](c3ccccc3)OC(=O)[C@H]1[C@@H]2C(=O)N1CCc2cc(OC)c(OC)cc2C1	0.432 (inactive)
CC(C)N1C(=O)[C@@]2(Cc3ccccc31)c1ccccc1C(=O)N(Cc1ccccc1C(F)(F)F)[C@H]2c1ccc(CO)cc1	-0.107 (inactive)
O=C1C[C@@](C(=O)NCC(F)(F)F)(c2ccc([N+](=O)[O-])cc2)[C@@H](c2ccc(CO)cc2I)N1CC12CC3CC(CC(C3)C1)C2	-0.355 (inactive)
C=C(C(=O)CC[C@@H](OC(=O)c1ccccc1-c1ccccc1C(=O)O)c1ccc(OCCO)cc1)C(C)C	-0.718 (inactive)
[N-]=[N+]=NCc1ccccc1C[C@@]1(C(N)=O)N=C(c2ccc(OCCCO)cc2)O[C@@H]1c1ccccc1N=[N+]=[N-]	0.0193 (inactive)

Could you tell me which z-score is on file for COC(=O)[C@@]1(Cc2ccc(F)cc2)[C@H]2c3cc(C(=O)N4CCCC4)n(CCc4c[nH]c5cc(F)ccc45)c3C[C@H]2CN1C(=O)c1ccccc1 ? 0.335 (inactive)

Form field: reported z-score of C=C(C(=O)CC[C@H](OC(=O)c1ccccc1-c1ccccc1C(=O)O)c1ccc(OCCO)cc1)C(C)C -0.711 (inactive)

Given the compound C=CCNC(=O)[C@@H]1[C@H]2C(=O)O[C@H](c3ccccc3)[C@H](c3ccccc3)N2[C@H](c2ccc(OCCO)cc2)[C@@]12C(=O)Nc1ccc(C#CCNC(N)=O)cc12 , what is its reported z-score? 1.06 (inactive)

// z-score lookup, key: C=CCNC(=O)[C@H]1[C@@H]2C(=O)O[C@@H](c3ccccc3)[C@@H](c3ccccc3)N2[C@@H](c2ccc(O)cc2)[C@]12C(=O)N(C(=O)OCCOC)c1ccc(C#Cc3ccc(OC)cc3)cc12 0.539 (inactive)

Which value of z-score has been reported for COCCOC(=O)N1C(=O)[C@@]2(c3cc(C#CCC(C(=O)OC)C(=O)OC)ccc31)[C@H](C(N)=O)[C@H]1C(=O)O[C@H](c3ccccc3)[C@H](c3ccccc3)N1[C@@H]2c1ccccc1OCCO in the records? -0.243 (inactive)

Give the measured z-score of O=C1O[C@H](c2ccccc2)[C@H](c2ccccc2)N2[C@H]1[C@@H](C(=O)O)[C@]1(C(=O)Nc3ccccc31)[C@H]2c1ccc(OCCO)cc1 . -0.785 (inactive)

Bench note: what z-score did COc1ccc([Si](C)(C)[C@@H]2[C@@H](CC(=O)N3Cc4ccccc4C[C@H]3CO)O[C@]3(C(=O)N(Cc4ccc(I)cc4)c4ccccc43)[C@H]2C)cc1 show? 2.33 (inactive)

---

Listing: composite z-score of selected compounds
# assayed system: Carbonic anhydrase 2 (Homo sapiens) (UniProt P00918)
# measurement protocol: CAII small-molecule binders, profiling panel, biochemical, small-molecule microarray, Alexa647-labelled CAII (AID 1122)
# measurement setup: CAII-A647 binding fluorescence, higher = more signal
Answer field: number only, no words.

Worked cases, answers included:
compound	composite z-score
COCCOC(=O)N1C(=O)[C@@]2(c3cc(C#CC4(O)CCCCCC4)ccc31)[C@H](C(N)=O)[C@H]1C(=O)O[C@H](c3ccccc3)[C@H](c3ccccc3)N1[C@@H]2c1ccc(OCCO)cc1	0.566
C=CC[C@]12N=C(c3ccc(OCCCO)cc3)O[C@H]1c1ccccc1N(CCC)C2=O	0.705
CN1C(=O)C2C(C1=O)C1C=C(CCCO)C2C(C2CC2)N1C (configuration not stated)	0.839
O=C1c2ccccc2[C@](Cc2ccccc2I)(C(=O)NCCN2CCOCC2)[C@H](c2ccc(CO)cc2)N1Cc1ccccc1C(F)(F)F	0.594

Return reported composite z-score; argument: C=CC[C@H](O)c1ccc(O)c2ccccc12 0.421

Which composite z-score is reported for this compound? CO[C@H]1O[C@H](CO)[C@@H](OC(=O)CCc2ccccc2)[C@@H]2OC(=O)[C@@H](Cc3ccc4ccccc4c3)C/C=C/C[C@H](Cc3ccc4ccccc4c3)C(=O)O[C@@H]12 0.191

Would you mind telling me what composite z-score value was observed for [N-]=[N+]=NCc1ccccc1C[C@@]1(C(N)=O)N=C(c2ccc(OCCCO)cc2)O[C@@H]1c1ccccc1N=[N+]=[N-] ? 0.63
